Task for the reader: assign each of the following compounds its reported IC50.
- testSystem: Ubiquitin carboxyl-terminal hydrolase 7 (Homo sapiens)
- testDescription: Ubiquitin-specific protease 7 DUB inhibitors, concentration-effect, biochemical, validation of primary hits (AID 1645861)
- protocolConditions: purified USP7, Ub-rhodamine cleavage fluorescence, 60 min
The source made the active and inactive calls.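 The calls were made as follows: active = compounds whose peak USP7 inhibition across the dose series reached 30% or more; inactive = the rest.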

| compound | testSystem | result |
| --- | --- | --- |
| O=C(Cn1c(=O)n(CCC(=O)N2CCc3ccccc3C2)c(=O)c2ccccc21)NCc1ccccc1Cl | Ubiquitin carboxyl-terminal hydrolase 7 (Homo sapiens) | > 50 µM (inactive) |
| COc1ccc(NC(=O)Cn2cc(C(=O)c3ccccc3)c(=O)c3cc(Cl)ccc32)cc1OC | Ubiquitin carboxyl-terminal hydrolase 7 (Homo sapiens) | > 50 µM (inactive) |
| COc1ccc(/C=C/C(=O)Nc2cccc(S(=O)(=O)Nc3ccccc3Cl)c2)c(OC)c1 | Ubiquitin carboxyl-terminal hydrolase 7 (Homo sapiens) | > 50 µM (inactive) |
| CCCCCCCc1cc(OC(=O)c2c(CCCCCCC)cc(O)cc2O[C@@H]2O[C@H](CO)[C@@H](O)[C@H](O)[C@H]2O)cc(O)c1C(=O)O | Ubiquitin carboxyl-terminal hydrolase 7 (Homo sapiens) | 9.94 µM |
| O=C1c2ccccc2C(=O)c2c(O)c(O)cc(O)c21 | Ubiquitin carboxyl-terminal hydrolase 7 (Homo sapiens) | 45.6 µM |
| O=C(COC(=O)c1ccc(NS(=O)(=O)c2ccc(F)c(F)c2)cc1)Nc1ccc(OCc2ccccc2)cc1 | Ubiquitin carboxyl-terminal hydrolase 7 (Homo sapiens) | > 50 µM (inactive) |
| CCc1nc(SCC(=O)Nc2cc(Cl)ccc2C)c2oc3ccccc3c2n1 | Ubiquitin carboxyl-terminal hydrolase 7 (Homo sapiens) | > 50 µM (inactive) |
| COc1cccc2cc(C(=O)Nc3nc(-c4ccncc4)cs3)oc12 | Ubiquitin carboxyl-terminal hydrolase 7 (Homo sapiens) | 18.3 µM |

For every item below, please supply its IC50.
1. COc1ccc(-c2cc(-c3ccc(F)cc3)[nH]c(=O)c2C#N)cc1
2. Cc1ccnc(NS(=O)(=O)c2ccc(NC(=O)c3ccc(S(=O)(=O)N(C)Cc4ccccc4)cc3)cc2)n1
3. Cc1ccc(NC(=O)Cc2nnc3c(-c4nc(C5CC5)no4)cccn23)cc1

## Result
1. > 50 µM (inactive)
2. > 50 µM (inactive)
3. 35.5 µM

For every item below, please supply its IC50.
1. Cc1ccc(S(=O)(=O)Nc2ccccc2C(=O)Nc2nc3ccc(Br)cc3s2)cc1
2. O=C(Nc1ccccc1-c1nc2ccccc2[nH]1)c1sc2ccccc2c1Cl
3. O=C(NC1(O)C(=O)c2ccccc2C1=O)c1ccc(-c2csnn2)cc1
4. Cc1cc(NC(=O)c2cc(-c3cccnc3)n[nH]2)ccc1Br

## Result
1: 10 µM; 2: 35.7 µM; 3: > 50 µM (inactive); 4: 48.6 µM

For every item below, please supply its IC50.
1. Nc1c(C(=O)NCc2ccc3c(c2)OCO3)nnn1Cc1ccc(Br)cc1F
2. Cc1ccc(CNC(=O)CCCn2c(=O)c3sccc3n(CC(=O)Nc3cc(Cl)ccc3C)c2=O)cc1
3. COc1cc2cc3c(c(O)c2c(O)c1-c1c(OC)cc2cc4c(c(O)c2c1O)C(=O)OC1CC(C)OC41)C(=O)OC1CC(C)OC31 (stereo unspecified)
4. O=C(Nc1cc(F)c2nc(N3CCOCC3)ccc2c1)C1CC1
5. Cc1ccc([N+](=O)[O-])cc1S(=O)(=O)Nc1cc2sc(=O)oc2c2ccccc12
6. O=C(Cc1ccc(-n2c(=O)c3ccccc3n(CC(=O)Nc3ccc(Cl)cc3Cl)c2=O)cc1)NCc1ccco1
7. CC(C)CC1NC(=O)C2CCCN2C1=O (stereo unspecified)

## Result
1. > 50 µM (inactive)
2. > 50 µM (inactive)
3. > 50 µM (inactive)
4. > 50 µM (inactive)
5. > 50 µM (inactive)
6. > 50 µM (inactive)
7. > 50 µM (inactive)

====

- testSystem: Ubiquitin carboxyl-terminal hydrolase 7 (Homo sapiens)
- testDescription: Ubiquitin-specific protease 7 DUB inhibitors, concentration-effect, biochemical, validation of primary hits (AID 1645861)
- protocolConditions: purified USP7, Ub-rhodamine cleavage fluorescence, 60 min
Activity calls are given as the source filed them.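 Rule for the calls: active = compounds whose peak USP7 inhibition across the dose series reached 30% or more; inactive = the rest.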
Your answer must be one of the following: active, inactive

| molecule | answerLabel |
| --- | --- |
| COc1cc2c(=O)n(CC3CCCO3)c(=O)n(CC(=O)c3ccc4c(c3)OCO4)c2cc1OC (centres undefined) | inactive |
| O=c1cc(-c2ccc(O)c(O)c2)oc2cc(O)cc(O)c12 | active |
| COC(=O)c1ccccc1NC(=O)Cn1c(=O)n(Cc2ccc(C(=O)NCc3ccco3)cc2)c(=O)c2ccccc21 | inactive |

## Task State the result this test recorded for `COc1ccc(Sc2nc3ccccc3n3cnnc23)cc1` .
## Result inactive

====

- testSystem: Ubiquitin carboxyl-terminal hydrolase 7 (Homo sapiens) (UniProt Q93009)
- Sequence (Q93009 whole entry, looked up): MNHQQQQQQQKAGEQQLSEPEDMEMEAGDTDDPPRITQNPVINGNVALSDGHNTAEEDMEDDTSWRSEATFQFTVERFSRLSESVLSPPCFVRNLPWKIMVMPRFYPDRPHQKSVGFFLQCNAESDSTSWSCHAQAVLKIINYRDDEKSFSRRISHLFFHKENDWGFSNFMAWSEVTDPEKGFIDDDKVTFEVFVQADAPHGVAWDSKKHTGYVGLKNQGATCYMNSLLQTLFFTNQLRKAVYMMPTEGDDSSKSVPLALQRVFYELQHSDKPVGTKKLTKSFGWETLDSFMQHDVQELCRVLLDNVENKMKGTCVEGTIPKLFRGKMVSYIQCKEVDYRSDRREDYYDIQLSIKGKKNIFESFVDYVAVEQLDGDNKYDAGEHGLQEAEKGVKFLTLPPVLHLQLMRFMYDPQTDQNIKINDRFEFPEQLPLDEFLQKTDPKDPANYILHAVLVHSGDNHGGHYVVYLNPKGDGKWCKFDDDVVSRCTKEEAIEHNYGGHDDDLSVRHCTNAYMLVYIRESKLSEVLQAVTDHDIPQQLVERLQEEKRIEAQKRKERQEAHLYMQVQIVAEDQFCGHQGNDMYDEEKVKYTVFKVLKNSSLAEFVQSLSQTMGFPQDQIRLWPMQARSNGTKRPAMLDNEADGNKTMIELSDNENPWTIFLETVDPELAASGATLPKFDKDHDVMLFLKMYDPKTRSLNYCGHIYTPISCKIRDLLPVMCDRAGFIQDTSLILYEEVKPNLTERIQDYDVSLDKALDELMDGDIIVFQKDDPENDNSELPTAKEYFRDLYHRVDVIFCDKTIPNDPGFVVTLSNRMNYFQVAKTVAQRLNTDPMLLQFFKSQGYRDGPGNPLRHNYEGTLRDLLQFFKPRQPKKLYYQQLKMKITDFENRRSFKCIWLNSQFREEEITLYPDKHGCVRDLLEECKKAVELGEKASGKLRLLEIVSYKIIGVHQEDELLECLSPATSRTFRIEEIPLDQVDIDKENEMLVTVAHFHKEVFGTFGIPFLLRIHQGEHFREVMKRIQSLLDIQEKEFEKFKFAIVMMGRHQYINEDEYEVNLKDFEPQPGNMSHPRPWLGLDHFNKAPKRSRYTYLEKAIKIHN
- testDescription: Ubiquitin-specific protease 7 DUB inhibitors, concentration-effect, biochemical, validation of primary hits (AID 1645861)
- protocolConditions: purified USP7, Ub-rhodamine cleavage fluorescence, 60 min
The source made the active and inactive calls.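 How the source made its calls: active means compounds whose peak USP7 inhibition across the dose series reached 30% or more; inactive means the rest.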
Your answer must be one of the following: active, inactive

// below: answered compounds
| compound | answerLabel |
| --- | --- |
| CO/C=C/C(=O)c1cc2cnc3c(=N)cc(NC(C)=O)c([nH]1)c23 | active |
| Cc1ccc(C(=O)NC(C)c2ccccc2)cc1NC(=O)c1nsc2ccccc12 (centres undefined) | inactive |
| COc1cccc(CNC(=O)c2nnn(CC(=O)Nc3cc(C)ccc3C)c2N)c1 | inactive |
| O=C(NC(Cc1ccccc1)c1nc2ccccc2[nH]1)C1CC1 (centres undefined) | inactive |

## Task State the result this test recorded for `O=C(Nc1cccc(F)c1)Nc1cccc(-c2nnc(-c3ccccc3)o2)c1` .
## Result inactive

## Task State the result this test recorded for `Cc1ccc(NC(=O)CSc2nnc(-c3n[nH]c4c3CCC4)n2N)cc1C` .
## Result inactive

## Task State the result this test recorded for C=C1C=C(CCC(=O)O)C(=O)OC1/C=C/C=C/C (centres undefined) .
## Result active

## Task State the result this test recorded for `O=c1[nH]c(C2CCN(S(=O)(=O)c3ccc(S(=O)(=O)NC4CCCCC4)cc3)CC2)nc2c1nnn2Cc1ccc(F)cc1` .
## Result inactive

## Task State the result this test recorded for `FC(F)(F)c1ccc(Nc2nnnc3ccccc23)cc1` .
## Result active

## Task State the result this test recorded for COc1cccc(NC(=O)C(Sc2cccc(NC(=O)c3ccccc3F)c2)c2ccccc2)c1 (centres undefined) .
## Result inactive

## Task State the result this test recorded for `CCOc1ccc2c(c1)c(=O)c(C(=O)c1ccccc1)cn2CC(=O)Nc1ccc2c(c1)OCCO2` .
## Result inactive

## Task State the result this test recorded for `Cc1ccc(Cn2cc(-c3noc(C(=O)Nc4cc(F)ccc4F)n3)nn2)cc1` .
## Result inactive

## Task State the result this test recorded for `COc1ccc(CCNC(=O)Cn2c(=O)c3sccc3n(Cc3cccc([N+](=O)[O-])c3)c2=O)cc1OC` .
## Result inactive

## Task State the result this test recorded for `CCOC(=O)c1ccc(Oc2sccc2[N+](=O)[O-])cc1` .
## Result active

====

- testSystem: Ubiquitin carboxyl-terminal hydrolase 7 (Homo sapiens)
- testDescription: Ubiquitin-specific protease 7 DUB inhibitors, concentration-effect, biochemical, validation of primary hits (AID 1645861)
- protocolConditions: purified USP7, Ub-rhodamine cleavage fluorescence, 60 min
Calls of active or inactive are those of the source.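 Rule for the calls: active = compounds whose peak USP7 inhibition across the dose series reached 30% or more; inactive = the rest.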
Your answer must be one of the following: active, inactive

// below: answered compounds
| compound | answerLabel |
| --- | --- |
| CN(C)[C@@H]1C(=O)C(C(N)=O)=C(O)[C@@]2(O)C(=O)C3=C(O)c4c(O)cccc4[C@@](C)(O)C3[C@H](O)[C@@H]12 (stereo partly drawn) | active |
| CCOc1ccc(-n2c(=O)c3sccc3n(CC(=O)Nc3cccc(C)c3)c2=O)cc1 | inactive |
| Cc1ccc(C(=O)c2cn(CC(=O)Nc3ccc4c(c3)OCO4)c3ccccc3c2=O)cc1 | inactive |

## Task State the result this test recorded for `O=C(NCc1ccc2c(c1)OCO2)c1cn(-c2cccc(Cl)c2)nn1` .
## Result inactive

====

- testSystem: Ubiquitin carboxyl-terminal hydrolase 7 (Homo sapiens)
- testDescription: Ubiquitin-specific protease 7 DUB inhibitors, concentration-effect, biochemical, validation of primary hits (AID 1645861)
- protocolConditions: purified USP7, Ub-rhodamine cleavage fluorescence, 60 min
Calls of active or inactive are those of the source.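 How the source made its calls: active means compounds whose peak USP7 inhibition across the dose series reached 30% or more; inactive means the rest.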
Your answer must be one of the following: label 1 (active), label 0 (inactive)

// below: answered compounds
| compound | answerLabel |
| --- | --- |
| N#Cc1cccc(NC(=O)COC(=O)c2n[nH]c3ccccc23)c1 | label 0 |
| O=C(CSc1nc2cc(C(F)(F)F)ccc2s1)NCC(=O)c1ccccc1 | label 1 |
| Cc1ccc(CNC(=O)Cn2c(=O)n(CCCC(=O)NCc3ccc(F)cc3)c(=O)c3ccccc32)cc1 | label 0 |
| O=C1CSC(c2ccc3c(c2)OCO3)c2c(n(C3CCCCCC3)[nH]c2=O)N1 (centres undefined) | label 0 |
| O=C(CCCc1nnc2c(=O)n(-c3cccc(F)c3)ccn12)NCc1ccc(Cl)cc1 | label 0 |

## Task State the result this test recorded for COC(=O)C1=CC(OC)=C(Cl)C(=O)C12OC(=O)c1c(O)cc(C)cc1O2 (centres undefined) .
## Result label 0

## Task State the result this test recorded for `Cc1ccc2c(c1)N(C)C(=O)c1cc(NC(=O)c3ccc(F)cc3)ccc1O2` .
## Result label 0

## Task State the result this test recorded for `COc1ccc([N+](=O)[O-])cc1NC(=O)COC(=O)c1ccc2[nH]c3c(c2c1)CCCC3` .
## Result label 0

## Task State the result this test recorded for `Cc1ccc(NC(=O)Nc2ccc(C)n(CC(=O)Nc3ccc(C)c(C)c3)c2=O)cc1` .
## Result label 1
